The reported measurements were obtained from patent US20250313605A1.

- subject of test: T1, human GIP receptor (human), P48546
- T1 chain: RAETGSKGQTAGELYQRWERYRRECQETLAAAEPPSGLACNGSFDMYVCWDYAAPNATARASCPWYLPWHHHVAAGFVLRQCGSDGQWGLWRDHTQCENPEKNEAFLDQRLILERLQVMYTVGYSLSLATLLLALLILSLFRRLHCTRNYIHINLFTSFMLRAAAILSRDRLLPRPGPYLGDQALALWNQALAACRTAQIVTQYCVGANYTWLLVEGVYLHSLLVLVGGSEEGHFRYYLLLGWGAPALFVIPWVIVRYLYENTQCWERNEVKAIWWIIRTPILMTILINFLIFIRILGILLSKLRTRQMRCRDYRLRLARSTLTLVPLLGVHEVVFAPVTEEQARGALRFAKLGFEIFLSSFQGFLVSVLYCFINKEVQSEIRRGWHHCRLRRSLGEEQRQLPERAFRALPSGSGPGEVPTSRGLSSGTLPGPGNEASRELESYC
- test: radioligand competition SPA, HEK293 membranes
pKi: −log10 of the molar value. *1 amine or outer side, *2 acyl side, *3 side chain or, on linkers, in order; H or OH if unused. Where no end group is shown, it is not given here. Side-chain parts run from the residue outwards. [ ]: non-standard residue; d: D form. The star is where a group is joined. C20 diacid = O=C(O)CCCCCCCCCCCCCCCCCCC(=O)*; γGlu = O=C(O)[C@H](CCC(=O)[*:2])N[*:1]; αMeL = CC(C)C[C@](C)(N)C(=O)O; αMeK = C[C@](N)(CCCCN)C(=O)O; AEEA = NCCOCCOCC(=O)O; Aib = CC(C)(N)C(=O)O
Quick rule: pKi of at least 10 means class 1, below that means class 0.

Y[Aib]QGTFTSDYSI[αMeL]LDKK([AEEA-AEEA-γGlu-C20 diacid])AQ[αMeK]AFIEYLLEGGPSSGAPPPS-NH2 [Example 3] | class 1

Incoming: Can Y[Aib]QGTFTSDYSI[αMeL]LDKK([AEEA-AEEA-γGlu-C20 diacid])AAQAFIEYLLEGGPSSGAPPPS-NH2 [Example 6] be said to have pKi at or above 10?
Outgoing: class 0
